- study system: α3β4 nAChR (Rattus norvegicus, UniProt P04757+P12392)
- Sequence (P04757 26-499): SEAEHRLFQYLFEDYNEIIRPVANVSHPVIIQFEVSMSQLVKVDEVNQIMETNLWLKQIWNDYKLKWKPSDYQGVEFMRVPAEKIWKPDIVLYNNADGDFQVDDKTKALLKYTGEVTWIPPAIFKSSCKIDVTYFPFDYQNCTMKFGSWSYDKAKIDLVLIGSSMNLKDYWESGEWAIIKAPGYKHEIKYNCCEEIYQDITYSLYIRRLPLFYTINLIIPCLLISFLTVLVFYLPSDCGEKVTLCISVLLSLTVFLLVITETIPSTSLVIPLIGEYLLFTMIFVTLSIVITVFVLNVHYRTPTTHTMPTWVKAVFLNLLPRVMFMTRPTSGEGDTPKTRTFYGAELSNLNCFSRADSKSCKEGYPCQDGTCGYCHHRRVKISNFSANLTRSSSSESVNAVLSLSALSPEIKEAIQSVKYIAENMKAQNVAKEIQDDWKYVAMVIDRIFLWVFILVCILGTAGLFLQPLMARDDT
- Sequence (P12392 21-495): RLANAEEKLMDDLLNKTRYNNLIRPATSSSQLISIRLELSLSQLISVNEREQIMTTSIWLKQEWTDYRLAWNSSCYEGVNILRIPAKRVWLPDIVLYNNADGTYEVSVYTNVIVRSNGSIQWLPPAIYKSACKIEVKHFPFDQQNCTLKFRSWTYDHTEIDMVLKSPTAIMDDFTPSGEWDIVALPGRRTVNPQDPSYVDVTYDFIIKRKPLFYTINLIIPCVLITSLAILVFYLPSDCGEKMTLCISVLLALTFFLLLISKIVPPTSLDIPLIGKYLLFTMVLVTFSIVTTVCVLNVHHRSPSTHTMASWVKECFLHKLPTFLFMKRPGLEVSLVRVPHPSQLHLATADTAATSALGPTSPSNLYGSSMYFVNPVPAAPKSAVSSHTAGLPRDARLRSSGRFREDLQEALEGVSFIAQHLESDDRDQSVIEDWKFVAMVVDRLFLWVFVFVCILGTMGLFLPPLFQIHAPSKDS
- procedure summary: [3H]-epibatidine competition binding, α3β4 nAChR in stably transfected HEK 293 cells
- setup conditions: competition against [3H]-epibatidine
pKi: −log10 of the molar value.

{"columns": ["smiles data", "study system", "pKi"],
 "data": [
  ["FCCCCC#Cc1cnc(F)c(OC[C@@H]2CCN2)c1", "α3β4 nAChR (Rattus norvegicus, UniProt P04757+P12392)", 7.03],
  ["c1cnc2cc3c(cc2n1)[C@@H]1CNC[C@H]3C1", "α3β4 nAChR (Rattus norvegicus, UniProt P04757+P12392)", 7.57],
  ["OCCCCC#Cc1cncc(OC[C@@H]2CCN2)c1", "α3β4 nAChR (Rattus norvegicus, UniProt P04757+P12392)", 8.19],
  ["CCCCC#Cc1cnc(C)c(OC[C@@H]2CCN2)c1", "α3β4 nAChR (Rattus norvegicus, UniProt P04757+P12392)", 6.24]
]}
